Listing of entries alongside the reported pIC50.
target: TNFα (Homo sapiens, UniProt P01375); construct: a human whole blood assay driven by endogenously expressed TNFα; endogenous in cells; assay: TNF human whole blood screening assay: CD11b expression on granulocytes after zymosan challenge; conditions: whole blood IC50 multiplied by the unbound fraction (Fu) in human blood; read-out: free IC50 in the human whole blood assay
Sequence (P01375 77-233 limits assumed): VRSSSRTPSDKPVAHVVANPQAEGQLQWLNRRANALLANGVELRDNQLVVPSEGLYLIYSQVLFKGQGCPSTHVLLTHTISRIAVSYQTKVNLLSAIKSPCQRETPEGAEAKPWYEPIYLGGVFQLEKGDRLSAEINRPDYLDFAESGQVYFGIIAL
pIC50: −log10 of the molar value.

compound-string	assayed-system	pIC50
CN1C(=O)c2cccc(OC(F)F)c2[C@H]2C[C@@H]1c1nc3ccc(-c4cnc([C@]5(C#N)C[C@@](C)(O)C5)c(F)c4)cc3n12	TNFα (Homo sapiens, UniProt P01375)	> 8.40
C[C@]1(C#N)C[C@](O)(c2ncc(-c3cc4c(cc3F)nc3n4[C@@H]4C[C@H]3NC(=O)c3cccc(OC(F)F)c34)cn2)C1	TNFα (Homo sapiens, UniProt P01375)	~8.22
C[C@]1(C#N)C[C@](O)(c2ncc(-c3ccc4nc5n(c4c3)[C@@H]3C[C@H]5NC(=O)c4cccc(OC(F)F)c43)cc2F)C1	TNFα (Homo sapiens, UniProt P01375)	~8.30
[2H]C([2H])([2H])N1C(=O)c2cccc(OC(F)F)c2[C@H]2C[C@@H]1c1nc3ccc(-c4cnc([C@]5(O)C[C@@](C)(C#N)C5)nc4)cc3n12	TNFα (Homo sapiens, UniProt P01375)	~8.22
